# Tested on: Mycobacterium tuberculosis
# assay-method-text: Antimycobacterial activity against drug-resistant Mycobacterium tuberculosis
# Format: functional
Entries and their MIC values follow.
Answer format: numeric, µg/mL implied, no suffix.

Solved entries:
INSERT INTO measurements (smiles_record, value_observed) VALUES
  ('CC(=O)NC[C@H]1CN(c2ccc(N3CCSCC3)c(F)c2)C(=O)O1', 0.03),
  ('O=[N+]([O-])c1cn2c(n1)OC[C@@H](OCc1ccc(OC(F)(F)F)cc1)C2', 0.015),
  ('COc1nc2ccc(Br)cc2cc1[C@@H](c1ccccc1)[C@@](O)(CCN(C)C)c1cccc2ccccc12', 0.003);

With those in mind, consider the next molecule.
Challenge: Return reported MIC; argument: "C[C@]1(COc2ccc(N3CCC(Oc4ccc(OC(F)(F)F)cc4)CC3)cc2)Cn2cc([N+](=O)[O-])nc2O1"
Response given: 0.006
